B1: Osa-1-4 twister ribozyme (parent)
chain: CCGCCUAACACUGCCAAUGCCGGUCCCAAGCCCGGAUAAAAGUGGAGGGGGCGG

Variants of: B1
ASSAY: self-cleavage, relative activity (ratio to wild type); higher = more cleavage; co-transcriptional
Bucketed by reported self-cleavage, buckets being interval 1 = under 0.07, interval 2 = from 0.07 up to 0.2, interval 3 = 0.2 and over

# example entries with known answers
{"columns": ["MUTATION_NOTATION", "CAT"],
 "data": [
  ["G19U G51A", "interval 2"],
  ["G48C G54C", "interval 2"],
  ["C14U G35A", "interval 3"],
  ["A39G C31U", "interval 3"],
  ["C26A G34A", "interval 1"]
]}

Data request: Class label required: A38G C11U
Data returned: interval 3

Data request: Class label required: A10G A28C
Data returned: interval 3

Data request: Class label required: A17U A29U
Data returned: interval 2

Data request: Class label required: A10G U18G
Data returned: interval 3

Data request: Class label required: C27A G53A
Data returned: interval 2

Data request: Class label required: G54U U18A
Data returned: interval 3

Data request: Class label required: C27U G54U
Data returned: interval 3

Data request: Class label required: A29C G35U
Data returned: interval 1

Data request: Class label required: A46C U37A
Data returned: interval 1

Data request: Class label required: A41G C9A
Data returned: interval 2

Data request: Class label required: A29C A7G
Data returned: interval 1

Data request: Class label required: C32A G50A
Data returned: interval 1

Data request: Class label required: A8C C27A
Data returned: interval 2

Data request: Class label required: G19A G45U
Data returned: interval 1

Hello, the source for this data is the RNAGym collection of RNA variant scans (doi:10.1002/anie.201605470), in case you need it.
